ASSAY_OVERVIEW: Toxicity liver stage against HepG2, at 10uM
Type: cell-based
Set-up: test concentration 10 uM, cell line HepG2-A16-CD81EGFP
CONDITION_SUMMARY: human, HepG2-A16-CD81EGFP cells; read-out: INHIBITION

{"COMPOUND": "Cc1nccn1CCCNc1ccc(Cl)c(C#N)n1", "cytotoxicity at 10 µM / %": -7.62}
{"COMPOUND": "COCc1nc(CNc2cc(C)on2)cs1", "cytotoxicity at 10 µM / %": 4.05}
{"COMPOUND": "Cn1nc2c(cc1=O)CN(CCCOc1ccc(C#N)cc1)CC2", "cytotoxicity at 10 µM / %": 22.9}
{"COMPOUND": "CC(C)(C)c1nc(CN2CCCC(Cn3cncn3)C2)cs1 (configuration not stated)", "cytotoxicity at 10 µM / %": -4.54}
{"COMPOUND": "CC(C)(C)C(=O)NCCC(=O)Nc1cc(C#N)cn1C(C)(C)C", "cytotoxicity at 10 µM / %": 2.02}
{"COMPOUND": "CNC(=O)c1cccc(CCNc2ccc(C#N)cn2)c1", "cytotoxicity at 10 µM / %": -3.67}
{"COMPOUND": "CN(CC(O)CO)C(=O)c1coc(COc2cccc(F)c2)n1 (configuration not stated)", "cytotoxicity at 10 µM / %": -149}
{"COMPOUND": "CC(C)c1noc(C2CCCN2S(=O)(=O)Cc2ccc(F)cc2)n1 (configuration not stated)", "cytotoxicity at 10 µM / %": 3.88}
{"COMPOUND": "COc1ccc(CCC(=O)NCc2cc(C)on2)cc1", "cytotoxicity at 10 µM / %": -56.4}
{"COMPOUND": "CCN(C(=O)CN1CCC(c2ccccc2)C1)C1CC1 (configuration not stated)", "cytotoxicity at 10 µM / %": 9.4}
{"COMPOUND": "Cc1nn2cnnc2c(C)c1CCC(=O)Nc1nnc(C(C)C)s1", "cytotoxicity at 10 µM / %": -3.25}
{"COMPOUND": "O=C(Cc1ccccn1)N1CCc2nc(-c3cnccn3)nc(O)c2C1", "cytotoxicity at 10 µM / %": 2.83}

---

cytotoxicity at 10 µM for assorted molecules
ASSAY_OVERVIEW: Toxicity liver stage against HepG2, at 10uM
Type: cell-based
Set-up: test concentration 10 uM, cell line HepG2-A16-CD81EGFP
CONDITION_SUMMARY: human, HepG2-A16-CD81EGFP cells; read-out: INHIBITION
MEASURED_METRIC: cytotoxicity at 10 µM (%)

{"MOLECULE": "Cc1cccc2nc(CN3CCCC(Cn4ccnn4)C3)cc(=O)n12 (stereo not given)", "UNIT_ABBREV": "%", "MEASURED_VALUE": 3.23}
{"MOLECULE": "CC(O)CN1CCN(C(=O)c2cccn2Cc2cccnc2)CC1 (stereo not given)", "UNIT_ABBREV": "%", "MEASURED_VALUE": -9.15}
{"MOLECULE": "O=C(NCCC1CCCCO1)c1cc(COc2cncc(Cl)c2)on1 (stereo not given)", "UNIT_ABBREV": "%", "MEASURED_VALUE": -1.73}
{"MOLECULE": "Cc1noc(C)c1CN1CCC2(CC1)NC(=O)CC2c1ccncc1 (stereo not given)", "UNIT_ABBREV": "%", "MEASURED_VALUE": 0.635}
{"MOLECULE": "O=C(NC[C@]12COC[C@H]1CN(Cc1cccnc1)C2)C1CCC1", "UNIT_ABBREV": "%", "MEASURED_VALUE": -105}
{"MOLECULE": "COCCN(Cc1cnn(C)c1)C(=O)C1CCN(C2CCCCC2)CC1", "UNIT_ABBREV": "%", "MEASURED_VALUE": 12.6}
{"MOLECULE": "CC(NC(=O)CCCOc1ccc(F)cc1)c1nnc2n1CCC2 (stereo not given)", "UNIT_ABBREV": "%", "MEASURED_VALUE": -16.1}
{"MOLECULE": "O=C(NCC(F)F)c1cnc(C2CCCN2)cn1 (stereo not given)", "UNIT_ABBREV": "%", "MEASURED_VALUE": 0.13}
{"MOLECULE": "COc1cccc2c1OCCCN(c1nc(C)nc3c1CCNCC3)C2", "UNIT_ABBREV": "%", "MEASURED_VALUE": -10.6}
{"MOLECULE": "Cc1noc(CN2Cc3ccccc3CC2c2nnc(C)o2)n1 (stereo not given)", "UNIT_ABBREV": "%", "MEASURED_VALUE": -4.62}
{"MOLECULE": "CCCc1ccc(CN2CCC3(CCC(=O)N(CCO)C3)CC2)o1", "UNIT_ABBREV": "%", "MEASURED_VALUE": -6.29}
{"MOLECULE": "Cn1cc(C2CCCN2CCCc2nc(-c3cccs3)no2)cn1 (stereo not given)", "UNIT_ABBREV": "%", "MEASURED_VALUE": -6.88}
{"MOLECULE": "Cc1nn(C)c2ncc(CN3CCN(c4ncccn4)CC3)cc12", "UNIT_ABBREV": "%", "MEASURED_VALUE": -0.234}
{"MOLECULE": "O=C(c1ccccn1)N1Cc2nccn2CC(CN2CCOCC2)C1 (stereo not given)", "UNIT_ABBREV": "%", "MEASURED_VALUE": 2.16}
{"MOLECULE": "Cc1nn(C)c(C)c1C1COCCN1c1ncnc2c(C)cccc12 (stereo not given)", "UNIT_ABBREV": "%", "MEASURED_VALUE": 6.54}
{"MOLECULE": "COc1cccc(CCC(=O)Nc2cnc3c(c2)c(C)nn3C)c1OC", "UNIT_ABBREV": "%", "MEASURED_VALUE": 1.67}
{"MOLECULE": "O=C(N[C@@H]1CN[C@@H]2CCCO[C@@H]21)c1cscn1", "UNIT_ABBREV": "%", "MEASURED_VALUE": -8.69}
{"MOLECULE": "Cc1nc(C)n(C2CCCN(C(=O)c3csc(C)n3)C2)n1 (stereo not given)", "UNIT_ABBREV": "%", "MEASURED_VALUE": -18.7}
{"MOLECULE": "N#Cc1ccc(CN2CCC(CCc3ccc(O)cc3)CC2)cc1", "UNIT_ABBREV": "%", "MEASURED_VALUE": 38.8}
{"MOLECULE": "Cn1cc(-c2csc(N3CCN(C(=O)OC(C)(C)C)CC3)n2)cn1", "UNIT_ABBREV": "%", "MEASURED_VALUE": 23.2}
{"MOLECULE": "CNC(=O)N1CCCCC1CCNS(C)(=O)=O (stereo not given)", "UNIT_ABBREV": "%", "MEASURED_VALUE": -3.41}
{"MOLECULE": "CCOc1ccccc1OC1CCN(C(=O)c2csnn2)CC1", "UNIT_ABBREV": "%", "MEASURED_VALUE": -5.5}
{"MOLECULE": "Cc1cnn(CC2CCCN2C(=O)Cn2nc(C)c(Cl)c2C)c1 (stereo not given)", "UNIT_ABBREV": "%", "MEASURED_VALUE": -11.3}
{"MOLECULE": "Cc1noc(CN2CCN(CCO)CC2)n1", "UNIT_ABBREV": "%", "MEASURED_VALUE": 2.17}
{"MOLECULE": "CSCC(C)(O)CNc1ncccc1C(F)(F)F (stereo not given)", "UNIT_ABBREV": "%", "MEASURED_VALUE": 13.7}

The values you see were collected from ChEMBL document CHEMBL4513216.
